# Target desc: FGFR3 (UniProt P22607)
# Sequence (P22607 whole entry, looked up): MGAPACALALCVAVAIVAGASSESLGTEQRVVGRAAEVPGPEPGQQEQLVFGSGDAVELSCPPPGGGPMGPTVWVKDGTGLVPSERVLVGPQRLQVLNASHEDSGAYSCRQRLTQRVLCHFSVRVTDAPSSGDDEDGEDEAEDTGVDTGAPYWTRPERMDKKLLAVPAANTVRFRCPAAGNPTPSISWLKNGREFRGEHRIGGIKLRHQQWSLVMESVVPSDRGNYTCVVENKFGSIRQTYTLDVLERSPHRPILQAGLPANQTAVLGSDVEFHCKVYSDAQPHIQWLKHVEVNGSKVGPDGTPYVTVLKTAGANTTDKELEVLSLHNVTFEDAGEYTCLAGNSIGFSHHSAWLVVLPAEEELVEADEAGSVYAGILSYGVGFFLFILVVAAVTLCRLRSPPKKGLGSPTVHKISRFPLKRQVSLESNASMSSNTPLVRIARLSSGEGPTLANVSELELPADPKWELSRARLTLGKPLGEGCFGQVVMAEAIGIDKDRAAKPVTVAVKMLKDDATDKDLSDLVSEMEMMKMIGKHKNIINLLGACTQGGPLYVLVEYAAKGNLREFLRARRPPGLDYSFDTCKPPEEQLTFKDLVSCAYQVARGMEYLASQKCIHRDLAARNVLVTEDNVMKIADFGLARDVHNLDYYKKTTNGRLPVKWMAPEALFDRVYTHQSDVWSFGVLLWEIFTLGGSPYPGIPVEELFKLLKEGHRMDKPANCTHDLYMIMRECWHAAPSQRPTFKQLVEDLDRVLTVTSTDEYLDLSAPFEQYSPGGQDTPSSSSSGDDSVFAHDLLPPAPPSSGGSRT
# Experimental details: phosphorylation enrichment, bacterial display (enrichment ratio); higher = better substrate or ligand; peptides without Tyr show the background
Listed here: items and their measured phosphorylation enrichment.
Reported property: phosphorylation enrichment

>>> print(df.to_string())
                        sequence_input  result
 0  IFETDYFQKGG [INSR_Y1189_R1191Q_YF]   0.876
 1       DLAAQYTTVGH [SGSH_Y240_R245H]   0.651
 2             WKEIEYEVVRD [CPS1_Y634]   0.754
 3      SSSNPYSTVTV [ACTN2_Y599_M604V]   0.483
 4     ESFCLYPPVPQ [CYP4B1_Y377_R375C]   0.647
 5              TNYRLYLRSLE [MTM1_Y71]   0.776
 6       SSDKVCAHQMV [MLH1_Y379_Y379C]   0.536
 7             FQEKGYNKELR [CHRND_Y38]   0.519
 8          SLIDGYFRLTA [JAK2_Y372_YF]   0.875
 9           SWDKRYCEAGF [ITGA2B_Y197]   0.561
10            SCRENYSDSEE [LEMD3_Y258]   0.694
11      KAIMTYVPSFY [ACTN4_Y260_S262P]   0.509
12        YFWDGYMPRQY [GSS_Y270_R267W]    9.39
13           CRIELYRVVES [IGFBP1_Y181]   0.887

---

# Target desc: EPHB1 (UniProt P54762)
# Sequence (P54762 whole entry, looked up): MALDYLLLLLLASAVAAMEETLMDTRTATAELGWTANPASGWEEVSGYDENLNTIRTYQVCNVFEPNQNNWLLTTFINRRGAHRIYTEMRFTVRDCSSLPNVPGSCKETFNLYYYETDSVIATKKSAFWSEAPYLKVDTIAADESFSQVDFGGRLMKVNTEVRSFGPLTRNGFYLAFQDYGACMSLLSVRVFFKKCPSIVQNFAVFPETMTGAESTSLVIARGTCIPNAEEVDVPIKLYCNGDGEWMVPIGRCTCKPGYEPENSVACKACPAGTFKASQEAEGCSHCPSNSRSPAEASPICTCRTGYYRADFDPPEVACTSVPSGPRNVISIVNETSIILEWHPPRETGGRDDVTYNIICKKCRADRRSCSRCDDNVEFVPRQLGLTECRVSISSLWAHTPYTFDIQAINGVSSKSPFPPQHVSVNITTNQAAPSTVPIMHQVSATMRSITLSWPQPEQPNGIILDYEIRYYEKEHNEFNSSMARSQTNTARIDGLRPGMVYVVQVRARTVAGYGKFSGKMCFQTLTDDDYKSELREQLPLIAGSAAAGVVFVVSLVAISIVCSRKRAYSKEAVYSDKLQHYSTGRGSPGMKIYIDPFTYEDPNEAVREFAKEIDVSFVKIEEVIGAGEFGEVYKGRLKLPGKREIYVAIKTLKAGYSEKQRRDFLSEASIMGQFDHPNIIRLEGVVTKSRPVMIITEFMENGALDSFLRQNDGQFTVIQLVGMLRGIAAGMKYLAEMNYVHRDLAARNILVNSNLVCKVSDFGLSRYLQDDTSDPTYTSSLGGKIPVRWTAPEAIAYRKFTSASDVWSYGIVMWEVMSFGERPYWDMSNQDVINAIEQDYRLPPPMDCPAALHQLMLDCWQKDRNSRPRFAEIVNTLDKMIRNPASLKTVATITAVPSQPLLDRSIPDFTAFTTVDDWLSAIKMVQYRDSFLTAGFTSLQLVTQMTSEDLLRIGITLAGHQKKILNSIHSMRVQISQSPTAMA
# Experimental details: phosphorylation enrichment, bacterial display (enrichment ratio); higher = better substrate or ligand; peptides without Tyr show the background
Readings of phosphorylation enrichment for the listed sequences
Reported property: phosphorylation enrichment

In [3]: df
Out[3]:
                         sequence_input  result
 0            LTAEVYFPSIK [C5orf64_Y60]   0.966
 1      TYGVAYRAKDK [CDK11B_Y453_V452A]   0.357
 2   LAAPKYKLNVD [SMARCA2_Y1190_A1188P]   0.205
 3    IHFAIYFLKFS [ARMC9_Y107_L108F_YF]   0.473
 4       IYHLSYHHNCE [PDE6B_Y227_L228H]   0.703
 5  PAGSGYPAFLG [ATP6V1A_Y374_D371G_YF]   0.634
 6              SETDDYAEIID [PTK2_Y397]   0.877
 7        YSNKLHYQLEQ [PDPR_Y109_Y109H]   0.498
 8    RSGIFYKPESL [L2HGDH_Y103_H98R_YF]   0.547
 9               GIADDYDKKKL [EIF1_Y54]   0.456
10         PEAALYGRFTF [FYN_Y440_I445F]    1.14
11          FGFPGYQSKHF [TIMP3_Y177_YF]   0.422
12    PGIRMYRVQFN [LRFN1_Y454_Q455R_YF]   0.468
13            RGGWVYVLHPT [TRMT61A_Y67]    1.07

---

# Target desc: Grb2 SH2 (UniProt P62993)
# Sequence (P62993 whole entry, looked up): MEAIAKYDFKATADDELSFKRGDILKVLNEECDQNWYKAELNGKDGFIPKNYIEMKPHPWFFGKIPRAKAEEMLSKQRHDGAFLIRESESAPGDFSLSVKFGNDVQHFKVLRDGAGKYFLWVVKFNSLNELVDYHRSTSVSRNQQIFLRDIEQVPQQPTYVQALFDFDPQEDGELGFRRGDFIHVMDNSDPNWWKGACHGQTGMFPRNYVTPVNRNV
# Experimental details: SH2 binding enrichment of the phosphorylated peptide, bacterial display (enrichment ratio); higher = better substrate or ligand; peptides without Tyr show the background
Reported property: SH2 binding enrichment

In [3]: df
Out[3]:
                        sequence_input  result
 0    VGNAAYQAGSL [STK36_Y1181_P1185S]   0.668
 1       ERIELYELDKK [PMM2_Y145_F144L]   0.803
 2      TKAEKYVNKPK [PLCG1_Y991_A995P]    1.05
 3      STGWSYAGVAV [KLHL3_Y577_R575W]   0.718
 4        FIAVGYVDDSQ [HLA-A_Y51_T55S]    0.91
 5           DDERGYRRVRS [GIGYF2_Y268]    0.86
 6           PASLSYLSFEG [EXOSC3_Y143]   0.762
 7           FFLGKYLQEVL [KLB_Y910_YF]    1.99
 8             FQEKGYNKELR [CHRND_Y38]   0.814
 9             DPYHVYIKNRV [KCNE3_Y95]   0.874
10        GVRYTYTIDGS [DCX_Y105_I104T]    1.07
11       AEARMYGVLPW [PLP1_Y207_D203E]   0.769
12        RAFRRYLLKQK [SCN2A_Y1919_YF]   0.829
13        ETKKQYNSFTY [TMED3_Y85_D86N]     1.1
14       REGAKYVSHSA [ASS1_Y113_G117S]   0.878
15      KNAEKYAEEDW [HSPA9_Y568_R573W]   0.735
16          YDAHNYHPLPV [OAT_Y55_G51D]    1.15
17     LTRDIYKNDYY [ROS1_Y2110_A2106T]    1.35
18            NDHHVYLEGTL [ALDOB_Y223]   0.995
19        ADLAKYICENR [ALB_Y287_Q292R]   0.817
20       QNTGDYCDLYG [PTPN11_Y62_Y63C]    1.11
21       AGTILYHAHLG [ASS1_Y291_D296G]   0.737
22          FPMLNYKDIRK [CFAP221_Y798]   0.976
23      AGREIYESEKC [TTN_Y4424_D4427E]    1.15
24       AGARMYGVLPW [PLP1_Y207_D203G]   0.782
25    EAEPYYCSLRD [NPHS1_Y1139_R1140C]   0.931
26      FTRNFYVWAVL [CYBA_Y88_R90W_YF]    1.09
27    RGVAHYILQTF [SLC39A4_Y359_T357A]    1.73
28             EVVGRYSVHNA [MLH1_Y183]   0.668
29       FVTCTYSPALN [TP53_Y126_S121F]   0.887
30              TNYRLYLRSLE [MTM1_Y71]     0.9
31     LSIQCYLRASD [HMGCS2_Y262_L266S]   0.732
32       SVVVPDEPPEV [TP53_Y220_Y220D]   0.755
33       GVTLLCYGRYN [ADGRD1_Y85_Y85C]   0.753
34           GTFEDYVEGLR [MYL6_Y89_YF]     0.9
35             VCHELYNTIRD [PBRM1_Y54]   0.766
36   FLAATYPTLGQ [NF1_Y2508_V2511L_YF]   0.866
37            RHAASYSSDSE [REPS1_Y116]   0.985
38    MNKNAYHNVTT [ST3GAL6_Y306_A311T]    4.43
39             WKEIEYEVVRD [CPS1_Y634]   0.697
40      LSCVIYVILRK [PMP22_Y153_G150C]     2.2
41       FDNPIYQKTTE [LDLR_Y828_V827I]    1.03
42    SPYAVYLFFTF [RPGRIP1_Y826_R827L]    1.07
43        QGCSIYKDFFR [PLA2G2D_Y82_YF]   0.921
44         FLGKGYSDGGC [MC4R_Y35_S30F]     1.1
45      ERDTVYSSSGV [NELL2_Y350_N347D]   0.847
46      HFGCVYRGTLL [MET_Y1093_H1094R]   0.868
47              GKTQQYDCKWY [BCR_Y751]   0.805
48          RLLVVYPWTRR [HBB_Y36_Q40R]   0.506
49            GGYTCYCDGKK [PROS1_Y266]   0.766
50         GEDEPYSEPFA [APBA1_Y183_YF]   0.936
51          KKFPDYIQIAM [SGMS2_Y59_YF]    0.93
52     RIAFQYGDTDL [MYBPC3_Y340_V342D]   0.954
53          HSFNSYTFPRL [PAK5_Y316_YF]   0.699
54       REVVNYVQKRS [RMI1_Y450_N455S]   0.826
55  LAAPKYKLNVD [SMARCA2_Y1190_A1188P]   0.713
56          LSDGPYSNPFE [EPOR_Y485_YF]    0.82
